Target: α-glucosidase
Experiment: in vitro α-glucosidase inhibitory activity
observed_property: IC50 (µM)

These recorded examples may help you get a feel for the data.
[[record]]
molecule = "CC(C)(/C=C1\\SC(=O)N(C(=O)CN2CCOCC2)C1=O)[C@@H]1CC(=O)N(c2ccccc2)C1=O [10c]"
unit_annotation = "µM"
assay_value = 25.6

[[record]]
molecule = "CC(C)(C=C1SC(=O)N(C(=O)CN2CCOCC2)C1=O)C1CC(=O)N(Cc2ccccc2)C1=O (centres unmarked) [10d]"
unit_annotation = "µM"
assay_value = 10

[[record]]
molecule = "COc1ccc(N2C(=O)C[C@@H](C(C)(C)/C=C3\\SC(=O)N(C(=O)CN4CCOCC4)C3=O)C2=O)cc1 [10e]"
unit_annotation = "µM"
assay_value = 13.2


I = CC(C)(/C=C1\SC(=O)N(C(=O)CN2CCOCC2)C1=O)[C@@H]1CC(=O)NC1=O [10a]
II = CN1C(=O)C[C@@H](C(C)(C)/C=C2\SC(=O)N(C(=O)CN3CCOCC3)C2=O)C1=O [10b]
Please indicate which has the smaller reported IC50: I , or II . Please identify the chosen entry by its label.
I
(I: 16.5 µM, II: 27.4 µM)
